test: HepG2 viability counterscreen (readout 2: ATP content) against the NCATS DSHEA and TCM libraries (AID 1794840); conditions: ATP content luminescence; series mostly up to 27.3 µM;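 note: HepG2 cells exposed to substances for about 24 h; 0% is about no effect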
Active and inactive are the calls of the source. Calls come from the whole dose curve; as a rule, active = well fitted curve in the direction sought with a large enough effect; inconclusive = small, poorly fitted or top-dose-only effect, or another doubt; inactive = no such curve, though single readings can be large or run the other way.
PARAMETER: activity change, negative = cytotoxic

{"MOLECULE": "C=CCc1ccc(OC)c(OC)c1", "REPORTED": "inactive"}
{"MOLECULE": "CC/C=C\\C/C=C\\C/C=C\\C/C=C\\CCCCC(=O)O", "REPORTED": "-8.49% [at 3.42 µM] (inactive)"}
{"MOLECULE": "CC(C)[C@H](C)CC[C@@H](C)[C@H]1CC[C@H]2[C@@H]3CC=C4C[C@@H](O)CC[C@]4(C)[C@H]3CC[C@]12C", "REPORTED": "inactive"}
{"MOLECULE": "CCCCCCC/C=C/C(=O)CCc1ccc(O)c(OC)c1", "REPORTED": "inactive"}
{"MOLECULE": "C=C1CC[C@H](O)C/C1=C\\C=C1/CCC[C@]2(C)[C@@H]([C@H](C)CC[C@H](C)C(C)C)CC[C@@H]12", "REPORTED": "inactive"}
{"MOLECULE": "O=C(O)[C@H]1O[C@@H](Oc2c(-c3ccc(O)c(O)c3)oc3cc(O)cc(O)c3c2=O)[C@H](O)[C@@H](O)[C@@H]1O", "REPORTED": "inactive"}
{"MOLECULE": "O=C(OC[C@H]1O[C@@H](OC(=O)c2cc(O)c(O)c(O)c2)[C@H](OC(=O)c2cc(O)c(O)c(O)c2)[C@@H](OC(=O)c2cc(O)c(O)c(O)c2)[C@@H]1O)c1cc(O)c(O)c(O)c1", "REPORTED": "inactive"}
{"MOLECULE": "CCCCCCCCCCCCCCCCCCCCCCCCCCCCCCO", "REPORTED": "-1.11% [at 3.42 µM] (inactive)"}
{"MOLECULE": "CC(=O)OC/C=C/c1ccccc1", "REPORTED": "inactive"}
{"MOLECULE": "C[C@@H]1O[C@@H](OC[C@H]2OC(Oc3c(-c4ccc(O)c(O)c4)oc4cc(O)cc(O)c4c3=O)[C@H](O)[C@@H](O)[C@@H]2O)[C@H](O)[C@H](O)[C@H]1O (stereo partly specified)", "REPORTED": "inactive"}
{"MOLECULE": "O=C(/C=C/c1ccc(O)c(O)c1)O[C@@H]1CC(O)(C(=O)O)C[C@@H](OC(=O)/C=C/c2ccc(O)c(O)c2)C1O (stereo partly specified)", "REPORTED": "inactive"}
{"MOLECULE": "OCC1=C[C@@H](O)[C@@H]2C=CO[C@@H](OC3O[C@H](CO)[C@@H](O)[C@H](O)[C@H]3O)[C@H]12 (stereo partly specified)", "REPORTED": "inactive"}
{"MOLECULE": "CC(C)(O)[C@@H]1CC[C@](C)([C@@H]2[C@H](O)C[C@]3(C)C4C[C@@H](O[C@H]5O[C@@H](CO)[C@H](O)[C@@H](O)[C@@H]5O)C5C(C)(C)[C@H](O[C@H]6OC[C@H](O)[C@@H](O)[C@@H]6O)CC[C@]56CC46CC[C@@]23C)O1 (stereo partly specified)", "REPORTED": "inactive"}
{"MOLECULE": "CCCCC/C=C/C/C=C/CCCCCCCC(=O)O", "REPORTED": "inactive"}
{"MOLECULE": "C=C(C)C(CC=C(C)C)CC12CC(CC=C(C)C)C(C)(C)C(CC=C(C)C)(C(=O)/C(=C(\\O)c3ccc(O)c(O)c3)C1=O)C2=O (stereo unspecified)", "REPORTED": "inactive"}
{"MOLECULE": "COc1ccc(-c2coc3cc(O[C@@H]4O[C@H](CO)[C@@H](O)[C@H](O)[C@H]4O)ccc3c2=O)cc1", "REPORTED": "inactive"}
